- Assayed System: Human recombinant FGF-1 (Homo sapiens, UniProt P05230)
- Construct: Human recombinant FGF-1 consisting of 141 residues; purchased Peprotech; host or cells: E. coli
- Sequence (P05230 with tags, fused parts or gaps limits assumed): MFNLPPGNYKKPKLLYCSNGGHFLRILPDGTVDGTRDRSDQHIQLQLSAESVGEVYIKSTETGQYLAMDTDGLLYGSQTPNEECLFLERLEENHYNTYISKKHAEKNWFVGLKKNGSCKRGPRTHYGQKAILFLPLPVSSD
- Procedure Summary: STD-NMR initial growth rates (STD0) of trisaccharides in presence of FGF-1
- Format: binding
- Settings: relative to largest anomeric STD0 of the compound (=100)
Experimental Readout: Relative STD0 H1-A

| Molecule | Assayed System | Readout Value |
| --- | --- | --- |
| CC(C)O[C@H]1O[C@H](COS(=O)(=O)O)[C@@H](O[C@@H]2O[C@@H](C(=O)O)[C@@H](O[C@H]3O[C@H](CO)[C@@H](O)[C@H](O)[C@H]3NS(=O)(=O)O)[C@H](O)[C@H]2OS(=O)(=O)O)[C@H](O)[C@H]1NS(=O)(=O)O [Compound 3] | Human recombinant FGF-1 (Homo sapiens, UniProt P05230) | 72 |
| CC(C)O[C@H]1O[C@H](COS(=O)(=O)O)[C@@H](O[C@@H]2O[C@@H](C(=O)O)[C@@H](O[C@H]3O[C@H](COS(=O)(=O)O)[C@@H](O)[C@H](O)[C@H]3NS(=O)(=O)O)[C@H](O)[C@H]2OS(=O)(=O)O)[C@H](O)[C@H]1NS(=O)(=O)O [Compound 1] | Human recombinant FGF-1 (Homo sapiens, UniProt P05230) | 66 |
| CC(C)O[C@H]1O[C@H](CO)[C@@H](O[C@@H]2O[C@@H](C(=O)O)[C@@H](O[C@H]3O[C@H](CO)[C@@H](O)[C@H](O)[C@H]3NS(=O)(=O)O)[C@H](O)[C@H]2OS(=O)(=O)O)[C@H](O)[C@H]1NS(=O)(=O)O [Compound 7] | Human recombinant FGF-1 (Homo sapiens, UniProt P05230) | 100 |

###

- Assayed System: Human recombinant FGF-1 (Homo sapiens, UniProt P05230)
- Construct: Human recombinant FGF-1 consisting of 141 residues; purchased Peprotech; host or cells: E. coli
- Procedure Summary: STD-NMR initial growth rates (STD0) of trisaccharides in presence of FGF-1
- Assay type: binding
- Settings: anomeric proton of ring C; 600 MHz, 289 K; protein 19 µM, ligand 1.6 mM
Recorded STD0 H1-C values for a group of compounds are listed next.
Experimental Readout: STD0 H1-C

| Smi | Readout Value |
| --- | --- |
| CC(C)O[C@H]1O[C@H](CO)[C@@H](O[C@@H]2O[C@@H](C(=O)O)[C@@H](O[C@H]3O[C@H](COS(=O)(=O)O)[C@@H](O)[C@H](O)[C@H]3NS(=O)(=O)O)[C@H](O)[C@H]2OS(=O)(=O)O)[C@H](O)[C@H]1NS(=O)(=O)O | 0.06 |
| CC(C)O[C@H]1O[C@H](CO)[C@@H](O[C@@H]2O[C@@H](C(=O)O)[C@@H](O[C@H]3O[C@H](CO)[C@@H](O)[C@H](O)[C@H]3NS(=O)(=O)O)[C@H](O)[C@H]2OS(=O)(=O)O)[C@H](O)[C@H]1NS(=O)(=O)O | 0.11 |
| CC(=O)N[C@H]1[C@@H](OC(C)C)O[C@H](CO)[C@@H](O[C@@H]2O[C@@H](C(=O)O)[C@@H](O[C@H]3O[C@H](COS(=O)(=O)O)[C@@H](O)[C@H](O)[C@H]3NS(=O)(=O)O)[C@H](O)[C@H]2OS(=O)(=O)O)[C@@H]1O | 0.12 |
| CC(C)O[C@H]1O[C@H](COS(=O)(=O)O)[C@@H](O[C@@H]2O[C@@H](C(=O)O)[C@@H](O[C@H]3O[C@H](COS(=O)(=O)O)[C@@H](O)[C@H](O)[C@H]3NS(=O)(=O)O)[C@H](O)[C@H]2OS(=O)(=O)O)[C@H](O)[C@H]1NS(=O)(=O)O | 0.42 |
